test method notes: Dissolving test in ethanol/water, time to complete dissolution
Type: physicochemical
condition details: 5 g in 95 g ethanol/water (equal parts by weight), 20° C., stirred, visual determination
endpoint: Time to complete dissolution (s)

CC(C)[C@@H]1CC[C@@H](C)C[C@H]1O [Crystals of natural menthol, l-menthol]; 255

a. CC(C)[C@@H]1CC[C@@H](C)C[C@H]1O [Menthol pellets according to WO 03/101924, Example 1] [l-menthol]
b. CC(C)[C@@H]1CC[C@@H](C)C[C@H]1O [Clumped menthol crystals, l-menthol]
c. CC(C)[C@@H]1CC[C@@H](C)C[C@H]1O [Menthol crystals from Example 1, l-menthol]
Arrange the 3 entries by Time to complete dissolution so the values rise. Reply: labels, ordered per the request.
c, b, a
(c: 170 s, b: 280 s, a: 504 s)
